Source: ChEMBL document CHEMBL2069253

- assay_name: Stability in mouse plasma assessed as compound remaining at 1 hr
- Type: ADME, cell-free
- protocol_conditions: read-out: Stability
reported_property: remaining at 1 h

I'd like to know its remaining at 1 h. The compound in question is N[C@@H](CC(=O)N1CCN(C(=O)c2ccccn2)CC1)Cc1cc(F)c(F)cc1F > 97%

====

- assay_name: Cmax in rat at 10 mg/kg, po
- Format: ADME, organism-based
- Parameters: dose 10 mg/kg, route oral
- protocol_conditions: in vivo
reported_property: Cmax
The answer should read as a number with its unit following.

Using the record for N[C@@H](CC(=O)N1CCN(C(=O)c2ccccn2)CC1)Cc1cc(F)c(F)cc1F , report its Cmax. 2030 ng/mL

====

- assay_name: Metabolic stability in rat liver microsomes assessed as compound remaining at 1 hr
- Type: ADME, Microsome
- protocol_conditions: read-out: Stability
reported_property: remaining at 1 h (%)
The response must be a number in % with no trailing unit.

Given N[C@@H](CC(=O)N1CCN(C(=O)c2ccccn2)CC1)Cc1cc(F)c(F)cc1F , state its recorded remaining at 1 h. 85

====

- target_entity: CYP3A4 (Homo sapiens)
- assay_name: Inhibition of CYP3A4 at 3 uM
- Assay type: ADME
reported_property: inhibition at 3 µM (%)
Please give a number only; it is taken to be in %.

# value lookup — system CYP3A4 (Homo sapiens), readout inhibition at 3 µM, item N[C@@H](CC(=O)N1CCN(c2ccc(F)cc2F)CC1)Cc1cc(F)c(F)cc1F 94

====

- target_entity: CYP3A4 (Homo sapiens)
- assay_name: Inhibition of CYP3A4 at 1 uM
- Type: ADME
reported_property: inhibition at 1 µM (%)
Write the number in % without appending the unit.

Requested read-out: inhibition at 1 µM. Entry: N[C@@H](CC(=O)N1CCN(c2ccc(F)cc2F)CC1)Cc1cc(F)c(F)cc1F 81.5

====

- target_entity: CYP3A4 (Homo sapiens, UniProt P08684)
- Sequence (P08684 whole entry): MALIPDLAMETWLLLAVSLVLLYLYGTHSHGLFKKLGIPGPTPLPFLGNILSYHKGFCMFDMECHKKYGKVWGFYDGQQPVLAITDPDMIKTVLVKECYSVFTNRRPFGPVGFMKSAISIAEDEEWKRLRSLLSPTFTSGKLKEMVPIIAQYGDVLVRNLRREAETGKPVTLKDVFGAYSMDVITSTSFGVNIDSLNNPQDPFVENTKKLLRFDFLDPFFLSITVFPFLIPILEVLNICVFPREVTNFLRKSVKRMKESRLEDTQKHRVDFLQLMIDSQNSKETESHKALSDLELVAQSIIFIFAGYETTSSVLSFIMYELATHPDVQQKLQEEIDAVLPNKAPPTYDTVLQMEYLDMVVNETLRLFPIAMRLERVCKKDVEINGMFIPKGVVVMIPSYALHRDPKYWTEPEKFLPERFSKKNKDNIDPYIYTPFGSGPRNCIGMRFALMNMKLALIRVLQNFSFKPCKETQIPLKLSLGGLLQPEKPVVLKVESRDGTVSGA
- assay_name: Inhibition of CYP3A4 at 10 uM
- Assay type: ADME
reported_property: inhibition at 10 µM (%)
Numeric answer only, unit % assumed.

Can you look up the measured inhibition at 10 µM of N[C@@H](CC(=O)N1CCN(c2ccc(F)cc2F)CC1)Cc1cc(F)c(F)cc1F for me? 100

====

- assay_name: Half life in rat at 10 mg/kg, po
- Assay type: ADME, organism-based
- Set-up: dose 10 mg/kg, route oral
- protocol_conditions: in vivo
reported_property: half-life (h)
# value in h; strip the unit string

Fill blank: measured half-life of the compound N[C@@H](CC(=O)N1CCN(C(=O)c2ccccn2)CC1)Cc1cc(F)c(F)cc1F is ____. 4.74

====

- assay_name: Metabolic stability in human liver microsomes assessed as compound remaining at 1 hr
- Assay type: ADME, Microsome
- protocol_conditions: read-out: Stability
reported_property: remaining at 1 h (%)
Numeric answer only, unit % assumed.

What does the record list as remaining at 1 h for N[C@@H](CC(=O)N1CCN(C(=O)c2ccccn2)CC1)Cc1cc(F)c(F)cc1F ? 89

====

- assay_name: Metabolic stability in mouse liver microsomes assessed as compound remaining at 1 hr
- Assay type: ADME, Microsome
- protocol_conditions: read-out: Stability
reported_property: remaining at 1 h (%)
# number only, unit % dropped from output

Look up remaining at 1 h for this compound: N[C@@H](CC(=O)N1CCN(C(=O)c2ccccn2)CC1)Cc1cc(F)c(F)cc1F 79

====

- assay_name: Metabolic stability in dog liver microsomes assessed as compound remaining at 1 hr
- Assay type: ADME, Canis lupus familiaris, Microsome
- protocol_conditions: read-out: Stability
reported_property: remaining at 1 h (%)
Dear colleague, please return just the value in %, with no unit written.

Reported remaining at 1 h for N[C@@H](CC(=O)N1CCN(C(=O)c2ccccn2)CC1)Cc1cc(F)c(F)cc1F : what is it? 88

====

- assay_name: Protein binding in rat
- Type: ADME, organism-based
- protocol_conditions: plasma, read-out: PB (converted)
reported_property: fraction unbound
Enter the number alone.

GET /values?readout=fraction unbound&item= N[C@@H](CC(=O)N1CCN(C(=O)c2ccccn2)CC1)Cc1cc(F)c(F)cc1F 0.729
